test: qHTS assay for identifying genotoxic compounds that show differential cytotoxicity against isogenic chicken DT40 cell lines with known DNA damage response pathways - Rev3 mutant cell line (AID 743014); settings: chicken DT40 Rev3-/- viability, CellTiter-Glo, 40 h; series mostly up to 68.4 µM; further: nearly all actives have a fitted effect of over 55% in size
Results filed as inconclusive are left out. The source made the active and inactive calls. The call rests on the fitted dose curve; in most records, active means well fitted cell-killing curve with a large enough effect in the repeat runs; inconclusive means weak or mixed curves, or effect the other way; inactive means no such curve, though single readings can be large or run the other way.
Respond with a class label; see 1 (yes) for active, 0 (no) for inactive

Req: Could you check what this test reported for `CC(C)CC#N` ?
Resp: 0 (no)

Req: // query: `O=C(Nc1ccccc1)c1ccccc1I`
Resp: 1 (yes)

Req: Continue with C(CCOCC1CO1)COCC1CO1 (stereo unspecified)
Resp: 1 (yes)

Req: Here is the next compound: O=c1oc2ccccc2c(O)c1C1CCCc2ccccc21 (stereo unspecified)
Resp: 0 (no)

Req: And `CC1(C(=O)Nc2ccc(O)c(Cl)c2Cl)CCCCC1` ?
Resp: 1 (yes)

Req: Okay, and `CCN(CC)CCOC(=O)C(C)(c1ccccc1)c1ccccc1` ?
Resp: 1 (yes)

Req: Another compound to check: `O=[N+]([O-])c1ccc(CBr)cc1`
Resp: 0 (no)

Req: Now try `CCC1(c2ccccc2)C(=O)NC(=O)NC1=O` .
Resp: 0 (no)

Req: Ok, now `[O]=[Cd]`
Resp: 0 (no)

Req: Same lookup for `COc1cccc(C(=O)NN(C(=O)c2cc(C)cc(C)c2)C(C)(C)C)c1C` , please.
Resp: 1 (yes)

Req: Also need `CNCC(=O)c1ccc(O)c(O)c1` , thanks.
Resp: 0 (no)

Req: Another compound: `[Cl][Sn]([Cl])([Cl])[Cl]`
Resp: 0 (no)

Req: And the next one, `N#Cc1ccncc1` ?
Resp: 0 (no)

Req: Here is the next compound: O=CNC(N1CCN(C(NC=O)C(Cl)(Cl)Cl)CC1)C(Cl)(Cl)Cl (stereo unspecified)
Resp: 1 (yes)

Req: `O=C(NCO)NCO` ?
Resp: 0 (no)

Req: Also need `COC(=O)c1ccccc1S(=O)(=O)NC(=O)Nc1nc(C)cc(C)n1` , thanks.
Resp: 0 (no)

Req: And the next one, `C[N+](C)=CCl` ?
Resp: 0 (no)

Req: Consider next the compound `COCC(=O)N(c1c(C)cccc1C)N1CCOC1=O` in the same way.
Resp: 0 (no)

Req: One more compound: `Cc1cccc(C#N)c1`
Resp: 0 (no)

Req: Now give it for `CCCCCCI` too.
Resp: 0 (no)

Req: Proceed to `Cc1nnc2n1-c1sc(CCC(=O)N3CCOCC3)cc1C(c1ccccc1Cl)=NC2`
Resp: 0 (no)

Req: Next: CCOP(=S)(Oc1cnc(C(C)(C)C)nc1)OC(C)C (stereo unspecified)
Resp: 1 (yes)

Req: `COC(=O)c1ccccc1S(=O)(=O)NC(=O)N(C)c1nc(C)nc(OC)n1` , same question.
Resp: 0 (no)

Req: Also `O=C1c2ccccc2C(=O)c2ccccc21` ?
Resp: 0 (no)

Req: Same for `CCOP(=S)(OCC)Oc1ncn(-c2ccccc2)n1`
Resp: 1 (yes)

Req: Subsequent entry: Fc1ccc(C2(Cn3cncn3)OC2c2ccccc2Cl)cc1 (stereo unspecified)
Resp: 1 (yes)

Req: Follow-up item: `CCOP(=S)(OCC)SCSP(=S)(OCC)OCC`
Resp: 1 (yes)

Req: Can you check `Cc1ncc2n1-c1ccc(Cl)cc1C(c1ccccc1F)=NC2` next?
Resp: 0 (no)

Req: And CC(Oc1ccc(Oc2ncc(C(F)(F)F)cc2Cl)cc1)C(=O)O (stereo unspecified) ?
Resp: 1 (yes)

Req: Proceed to `CCOP(=O)(N=C1SCCS1)OCC`
Resp: 0 (no)

Req: Here is the next compound: `C=C(C)CN(CC)c1c([N+](=O)[O-])cc(C(F)(F)F)cc1[N+](=O)[O-]`
Resp: 0 (no)
